Hello, the source for this data is PubChem BioAssay AID1347385, in case you need it.

assay.explanation: compounds reducing fatty acid uptake into lipids – ZR-82 cells, Enamine library, screen 3, primary screen (AID 1347385);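 note: 3 h compound exposure then viability read about one day after UV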
experimental.parameters: ZR-82 CHO cells, pyrene fatty acid UV survival, CellTiter Blue, peroxisome-deficient CHO-K1 mutant line, plus DGAT-1, DGAT-2 and ACAT inhibitors; at 10 µM unless noted
The campaign covered roughly 20,000 compounds. About 85 (0.4%) were called active.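 Rule for the calls: active = cell survival signal 2 SD away from solvent-only control wells, confirmed on one or two retests; inactive = the rest.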 The sample holds actives, similar compounds and a random draw of the others, so the mix is not that of the screen.
Field 'call' accepts active, inactive

The following compounds have reported results that may help.
compound=O=C1OCC(CO)(CO)N=C1NNc1ccc(I)cc1 assigned_category=inactive
compound=C=CCN(CC=C)CC(=O)Nc1sc2c(c1C(N)=O)CCCC2 assigned_category=inactive
compound="O=S1(=O)CCC(N(Cc2ccco2)S(=O)(=O)c2ccc(S(=O)(=O)N3CCCC3)cc2)C1 (stereo not drawn)" assigned_category=inactive
compound=O=[N+]([O-])c1ccc(-c2c[n+](=O)c3c(n2[O-])CCCCC3)cc1 assigned_category=inactive
compound=CCOC(=O)/C=C1\SCC(=O)N1CCSc1nnc(C)s1 assigned_category=inactive

Query :: Could you check what this test reported for `Fc1ccc(Cn2c3[n+](c4ccc(C(F)(F)F)cc42)CCCCC3)cc1` ?
Result :: inactive

Query :: Please do the same for `Cn1nnc2c(=O)[nH]cc([N+](=O)[O-])c21` as well.
Result :: inactive

Query :: Please do the same for `CCOC(=O)c1c(C)[nH]c(C(=O)OCC(=O)C(C)(C)C)c1C` as well.
Result :: inactive

Query :: Please do the same for COc1ccc(C2=CC(c3ccc(OC)cc3)n3nnnc3N2)cc1 (stereo not drawn) as well.
Result :: inactive

Query :: Please do the same for `Clc1ccc(C=Nc2ccc3c(c2)OCO3)c(Cl)c1` as well.
Result :: inactive
